// data source = a melting point compilation (Tetko et al.; mined from patent text by program, amines drawn as free bases though some values may be those of a salt)

assay_readout: melting point

Check out these entries, answers already filled in.
| compound | value_measured |
| --- | --- |
| O=[N+]([O-])c1cc(Cl)c(Cl)cc1NCCCO | 97 °C |
| COc1ccc(-c2c(Br)oc3cc(OC)cc(OC)c23)cc1 | 125 to 126 °C |
| Cc1ccc(-c2ccc(NN)nn2)c(OCC(O)CNC(C)(C)C)c1 (stereo not given) | 145 to 155 °C |
| CCn1c(=O)c2c(-c3noc(C4CC4)n3)ncn2c2cccnc21 | 254 to 255 °C |
| Nc1ccc(-c2noc(-c3cnn4c(C(F)(F)F)cc(-c5ccc(C(F)(F)F)c(F)c5)nc34)n2)cn1 | 233 °C |
| COc1cc(-c2ccccc2F)c(Cl)cc1C(=O)N1Cc2cccn2Cc2ccccc21 | 192 to 194 °C |
| CC(=O)NC[C@H]1CN(c2ccc3c(c2)CCSc2cn[nH]c2-3)C(=O)O1 | 186 to 187 °C |
| CCCc1c(OCCCSc2ccc(C(=O)CCC(=O)O)cc2F)ccc(C(C)=O)c1O | 115 to 116 °C |

Incoming: # query: melting point of entry `Cc1ncnc2c1ncn2[C@H](C)[C@](O)(Cn1cncn1)c1ccc(F)cc1F`
Outgoing: 200 to 201 °C

Incoming: Fill blank: measured melting point of the compound `CC(=O)Nc1c(F)cc(F)cc1SCC#N` is ____.
Outgoing: 148 to 149 °C

###

assay_readout: melting point

Reference set, count: 2
| molecule | melting point |
| --- | --- |
| CC(C)c1cccc(C(C)C)c1NC(=O)N(Cc1ccc(O)cc1)CC1(c2cccc(N(C)C)c2)CCCCC1 | 166 to 168 °C |
| CN(c1cccc2cc(C3=NCC(CN4CCSCC4)S3)[nH]c12)S(=O)(=O)c1ccccn1 (stereo unspecified) | 142 to 144 °C |

Incoming: Find the recorded melting point belonging to O=C(O)c1cc2cc(Cl)ccc2nc1NC(Cc1ccc(C#Cc2ccccc2)cc1)C(=O)O (stereo unspecified) and report it.
Outgoing: 164 to 173 °C

Incoming: Fill blank: measured melting point of the molecule `Cc1nc(N2CCN(Cc3cccnc3)C2=O)sc1C(=O)NCc1ccccc1` is ____.
Outgoing: 110 to 113 °C

Incoming: Value lookup for melting point; key = `N#CC(Cl)=C(Cl)SC(Cl)=C(Cl)C#N`
Outgoing: 87 °C

Incoming: # query: melting point of entry `CC[C@H](C(N)=O)N1CCCC1=O`
Outgoing: 115 to 117 °C

Incoming: # melting point lookup, item `Nc1nc(=O)n(C(=S)Oc2ccccc2)cc1F`
Outgoing: 113 to 116 °C

###

assay_readout: melting point

| molecule | melting point |
| --- | --- |
| O=C1c2c(OCc3ccccc3)cccc2-c2nn(CCN(CCO)Cc3ccccc3)c3ccc(NCCNCCO)c1c23 | 134 to 137 °C |
| COc1ccc(CNc2nc(N)n3nc(-c4ccco4)nc3n2)cc1OCc1ccccc1 | 173 to 175 °C |
| COc1ccc(C(SC)c2ccc(OC)cc2)cc1 | 62 to 63 °C |
| CNc1cn(-c2cncc(F)c2)nc1C | 142 to 144 °C |
| CCOC(=O)c1ncc2[nH]c3ccc(Cl)cc3c2c1C | 225 to 228 °C |

Incoming: Entry under review: CC(C)C(=O)N(O)C(C)c1cc2ccccc2s1 (stereo not given) . Reported melting point?
Outgoing: 132 to 138 °C

Incoming: Need melting point of `COc1ccc(OCC2(Cc3c(C)[nH]c(=O)c(C(C)C)c3O)CC2)cc1` , thanks.
Outgoing: 222 to 223 °C

Incoming: Entry `COc1cc2c(cc1-c1cccnc1)-c1c(Br)c3c(n1CC2)C(=O)N(C(C)(C)C)CCC3` : reported melting point = ?
Outgoing: 184 to 186 °C

Incoming: Which melting point is reported for this molecule? COC(=O)c1c(C(F)F)nc(C(F)(F)F)c(N=COCC2CO2)c1CC(C)C (stereo not given)
Outgoing: 41 to 43 °C

Incoming: For the molecule `CC(=O)Nc1ccc(S(=O)(=O)NCCCN2CCOCC2)cc1` , what melting point is on record?
Outgoing: 97 to 98 °C
